The values you see were collected from BindingDB's records for doi:10.1021/acs.jmedchem.5b00085.

- assay.info: Modulation of P-gp (unknown origin) transfected in human MDA435/LCC6MDR cells assessed as reversible of paclitaxel resistance measured as IC50 for paclitaxel at 1 uM after 5 days by CellTiter 96 Aqueous assay
endpoint.label: pIC50
In plain terms, pIC50 is the concentration in mol/L turned into minus its base-10 logarithm.

// query pIC50 value for entry `COc1cc(OC)c2c(c1)O[C@H](c1cc(OC)c(OC)c(OC)c1)[C@@H](OC(=O)c1ccc(OC)c(OC)c1)C2`
7.92

// query pIC50 value for entry `COc1cc(OC)c2c(c1)O[C@H](c1cc(OC)c(OC)c(OC)c1)[C@H](OC(=O)c1ccc(F)c(NC(=O)c3ccc(F)c(NC(=O)c4cc(OC)c(OC)c(OC)c4)c3)c1)C2`
7.89

// query pIC50 value for entry `COc1ccc(/C=C/C(=O)O[C@H]2Cc3c(OC)cc(OC)cc3O[C@@H]2c2cc(OC)c(OC)c(OC)c2)cc1`
7.72
